// provenance: paper PMC11487561

Each record here notes measured Emax.
molecular target: human M4 (hM4) (Homo sapiens); construct: expressed in transfected cells; assay: Calcium mobilization assay, hM4/Gqi5-CHO cells, EC20 acetylcholine (PAM); assay type: cell-based; conditions: calcium mobilization, hM4/Gqi5-CHO cells, EC20 acetylcholine; read-out: hM4 %ACh Max
Sequence (P08173 whole entry): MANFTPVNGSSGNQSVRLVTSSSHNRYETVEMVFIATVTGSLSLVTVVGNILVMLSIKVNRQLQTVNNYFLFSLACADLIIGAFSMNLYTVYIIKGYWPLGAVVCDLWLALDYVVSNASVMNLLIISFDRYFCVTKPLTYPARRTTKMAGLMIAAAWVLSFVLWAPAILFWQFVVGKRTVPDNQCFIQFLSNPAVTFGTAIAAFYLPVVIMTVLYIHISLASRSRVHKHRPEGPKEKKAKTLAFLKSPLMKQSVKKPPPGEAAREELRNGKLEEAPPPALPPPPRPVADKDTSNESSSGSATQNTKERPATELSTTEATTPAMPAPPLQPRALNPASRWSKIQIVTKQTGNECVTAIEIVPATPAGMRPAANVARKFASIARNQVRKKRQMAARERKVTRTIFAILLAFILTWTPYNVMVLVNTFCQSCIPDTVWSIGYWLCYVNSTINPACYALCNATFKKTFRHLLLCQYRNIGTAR
Provide the reading as a plain figure in %.

Below, 6 compounds whose answers are already recorded.
Need Emax of Cc1nc(C)c2c(n1)sc1c(NCc3ccc(C(C)(C)O)cc3F)nccc12 [22h] , thanks. 89

Also, Cc1nc(C)c2c(n1)sc1c(NC3CCC3)nccc12 [22c] please. 95

Also, Cc1nc(C)c2c(n1)sc1c(N3CC4CC4C3)ncnc12 (stereo not shown) [14i] please. 76

Also, Cc1nc(C)c2c(n1)sc1c(N3CCOCC3)ncnc12 [14b] please. 39

Also, Cc1nc(C)c2c(n1)sc1c(N3CCC(F)(F)C3)nccc12 [22f] please. 97

Also, Cc1nc(C2CC2)nc2sc3c(NCc4ccc(C(C)(C)O)cc4)nccc3c12 [22o] please. 97

Further cases:
Need Emax of Cc1nc(C)c2c(n1)sc1c(N3CCCCC3)nccc12 [22e] , thanks. 58

Also, Cc1nc(CC(C)C)nc2sc3c(NCc4ccc(C(C)(C)O)cc4)nccc3c12 [22n] please. 66

Also, Cc1nc(C)c2c(n1)sc1c(NCc3ccc(C(C)(C)O)cc3)ncc(Cl)c12 [26a] please. 92

Also, Cc1nc(C)c2c(n1)sc1c(NCc3ccc(C(C)(C)O)c(F)c3)nccc12 [22i] please. 86

Also, Cc1nc(C)c2c(n1)sc1c(N3CCCC3)ncnc12 [14g] please. 52

Also, Cc1nc(C)c2c(n1)sc1c(N3CCC(F)(F)C3)ncnc12 [14e] please. 77

Also, Cc1nc(C)c2c(n1)sc1c(N3CCN(C)CC3)nccc12 [22b] please. 52
